The measured values listed here are drawn from patent US12146004B2.

Tested on: Acinetobacter baumannii
Format: cell-based
Bridge positions count the residues as written; N and C are the ends. Square brackets hold non-standard residues; d marks the D form. Peptide text beside a SMILES is read from it. * marks the point of attachment. dCha = N[C@H](CC1CCCCC1)C(=O)O; X20 = NCC(Cc1ccccc1F)C(=O)*; X19 = NCCC(C(=O)*)C1CCCCC1; Dab = NCC[C@H](N)C(=O)O; Dap = NC[C@H](N)C(=O)O
measuredParameter: MIC A. baumanii ATCC BAA-747 (µg/mL)
Number in µg/mL, nothing else.

molecule | MIC A. baumanii ATCC BAA-747 (µg/mL)
CC(C)C[C@@H]1NC(=O)[C@@H](CC2CCCCC2)NC(=O)[C@H](CCN)NC(=O)[C@@H](NC(=O)[C@H](CCN)NC(=O)[C@@H](NC(=O)C(CN)Cc2ccccc2F)[C@@H](C)O)CCNC(=O)[C@H]([C@@H](C)O)NC(=O)[C@H](CCN)NC(=O)[C@H](CCN)NC1=O (some centres unmarked) [Example 62, 3-amino-2-(2-fluorobenzyl) propanoyl] (X20-T[Dab][Dab][Dab][dCha]L[Dab][Dab]T; lactam 3-C) | 0.5

**Q:** Give recorded MIC A. baumanii ATCC BAA-747 with Acinetobacter baumannii for the following molecule: CC(C)C[C@@H]1NC(=O)[C@@H](CC2CCCCC2)NC(=O)[C@H](CCN)NC(=O)[C@@H](NC(=O)[C@H](CN)NC(=O)[C@@H](NC(=O)C(CCN)C2CCCCC2)[C@@H](C)O)CCNC(=O)[C@H]([C@@H](C)O)NC(=O)[C@H](CCN)NC(=O)[C@H](CCN)NC1=O (some centres unmarked) [Example 85] (X19-T[Dap][Dab][Dab][dCha]L[Dab][Dab]T; lactam 3-C)
**A:** 0.125

---

System: Acinetobacter baumannii
Assay type: cell-based
Numbered stars: 1 amine (or outer) side, 2 acyl side, 3 side chain; on linkers, the order of the positions; unused ones are H or OH. Bridge positions count the residues as written; N and C are the ends. Square brackets hold non-standard residues; d marks the D form. Peptide text beside a SMILES is read from it. * marks the point of attachment. ξ: configuration not given here. X5 = CCCCCCCCc1ccc(C[C@@H](N[*:1])C(=O)[*:2])cc1; X14 = CC(C)c1ccc(CO[C@@H](CCN)C(=O)*)cc1; dCha = N[C@H](CC1CCCCC1)C(=O)O; Thr(3ξ) = CC(O)[C@H](N)C(=O)O; X4 = CC(C)CC1CNCC(C(=O)*)C1; Dab = NCC[C@H](N)C(=O)O; Dap = NC[C@H](N)C(=O)O
measuredParameter: MIC A. baumanii ATCC BAA-747 (µg/mL)
Number in µg/mL, nothing else.

compound | target | unitDescriptor | measuredResult
CC(C)C[C@@H]1NC(=O)[C@@H](CC2CCCCC2)NC(=O)[C@H](CCN)NC(=O)[C@@H](NC(=O)[C@H](CN)NC(=O)[C@@H](NC(=O)[C@H](CCN)OCc2ccc(C(C)C)cc2)[C@@H](C)O)CCNC(=O)[C@H]([C@@H](C)O)NC(=O)[C@H](CCN)NC(=O)[C@H](CCN)NC1=O [Example 88] (X14-T[Dap][Dab][Dab][dCha]L[Dab][Dab]T; lactam 3-C) | Acinetobacter baumannii | µg/mL | 0.25

**Q:** Give recorded MIC A. baumanii ATCC BAA-747 with Acinetobacter baumannii for the following compound: CC(C)C[C@@H]1NC(=O)[C@@H](CC2CCCCC2)NC(=O)[C@H](CCN)NC(=O)[C@@H](NC(=O)[C@H](CCN)NC(=O)[C@@H](NC(=O)C(CN)Cc2ccccc2)C(C)O)CCNC(=O)[C@H]([C@@H](C)O)NC(=O)[C@H](CCN)NC(=O)[C@H](CCN)NC1=O (single isomer, unassigned; isomer 2)
**A:** 0.5

**Q:** Give recorded MIC A. baumanii ATCC BAA-747 with Acinetobacter baumannii for the following compound: CCCCCCCCc1ccc(C[C@H]2NC(=O)[C@H](CCN)NC(=O)[C@@H](NC(=O)[C@H](CN)NC(=O)[C@@H](NC(=O)C3CNCC(CC(C)C)C3)C(C)O)CCNC(=O)[C@H]([C@@H](C)O)NC(=O)[C@H](CCN)NC(=O)[C@H](CCN)NC(=O)[C@H](CC(C)C)NC2=O)cc1 (stereo partly drawn) [Example 23] (X4-[Thr(3ξ)][Dap][Dab][Dab][X5]L[Dab][Dab]T; lactam 3-C)
**A:** 2
